molecular target: Siderocalin (Scn) (Homo sapiens, UniProt P80188); test: Fluorescence quenching binding assay of Scn; details: Fe^III complex; 100 nM Scn, TBS pH 7.4, 5% DMSO
Sequence (P80188 21-198): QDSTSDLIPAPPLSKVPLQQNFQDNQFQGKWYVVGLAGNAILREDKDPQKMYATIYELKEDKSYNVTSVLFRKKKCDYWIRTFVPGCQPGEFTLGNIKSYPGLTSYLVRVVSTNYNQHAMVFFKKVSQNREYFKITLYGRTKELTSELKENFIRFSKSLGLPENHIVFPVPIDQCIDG
property: Kd (µM)

(P) Cn1ccc(C(=O)NCCN(CCNC(=O)c2cccc(O)c2O)CCNC(=O)c2cccc(O)c2O)c(O)c1=O [trenCAM2(Me-3,2-HOPO), tren(CAM)2(Me-3,2-HOPO)]
(Q) O=C(NCCN(CCNC(=O)c1cccc(=O)n1O)CCNC(=O)c1cccc(=O)n1O)c1cccc(O)c1O [trenCAM(1,2-HOPO)2, tren(CAM)(1,2-HOPO)2]
Problem: # return whichever of P and Q has the smaller Kd Kindly give the label for the entry you pick.
Solution: Q
(Q: 0.043 µM, P: 0.12 µM)

(a) O=C(NCCN(CCNC(=O)c1cccc(O)c1O)CCNC(=O)c1cccc(=O)n1O)c1cccc(O)c1O [trenCAM2(1,2-HOPO), tren(CAM)2(1,2-HOPO)]
(b) Cn1ccc(C(=O)NCCN(CCNC(=O)c2cccc(O)c2O)CCNC(=O)c2ccn(C)c(=O)c2O)c(O)c1=O [trenCAM(Me-3,2-HOPO)2, tren(CAM)(Me-3,2-HOPO)2]
Problem: Could you point out whether the larger Kd belongs to a or to b ? Kindly give the label for the entry you pick.
Solution: b
(b: 0.15 µM, a: 0.0008 µM)
